Protocol: Unbound fraction in C57BL6J mouse plasma at 1 mg/kg, sc measured up to 24 hrs post dose by HPLC-MS/MS analysis
Format: ADME, organism-based
Attribute Measured: fraction unbound at 24 h

Reported fraction unbound at 24 h, molecule O=C(O[C@H](CO)C(F)(F)F)N1C[C@@H]2[C@H](C1)[C@H]2c1ccn(-c2ccc(F)cc2)n1 : ____ 0.0135
